- System: NDV Blackbird/China/08(IX)
- assay.summary: microbe, parasite or virus in culture
- Type: cell-based, Newcastle disease virus
- details: avian paramyxovirus 1, 24 h, read-out: IC50 Blackbird/China/08(IX)
readout.kind: IC50 (µM)
Numbers only, in µM.

Query: IC50; subject: NC(=O)c1ncn([C@@H]2O[C@H](CO)[C@@H](O)[C@H]2O)n1 [Ribavirin, reference compound]
10.4

From here, focus on the item given below.
Query: IC50; subject: CCCCn1c2cc(O)ccc2c2ccnc(C)c21 [compound 11, 9-butyl-harmol]
0.63

* * *

- System: CDV
- assay.summary: microbe, parasite or virus in culture
- Assay type: cell-based, canine distemper virus
- details: canine distemper virus, Vero, 24 h, read-out: IC50 CDV
readout.kind: IC50 (nM)
Numbers only, in nM.

Query: IC50; subject: CCCCn1c2cc(O)ccc2c2ccnc(C)c21 [compound 11, 9-butyl-harmol]
400

Every entry's value here was drawn from paper PMC10062145.
